- Test system: (NPNA)3 (Plasmodium falciparum)
- Assay protocol: SPR, antibody on chip
We begin with a simple list: items and their reported pKd.
pKd here: minus log base 10 of the concentration, concentration in moles per litre.

Here are 2 binders together with their reported answers.
INSERT INTO assay_data (binder, result_value) VALUES
  ('AB-007043 (antibody, V domains shown) VH: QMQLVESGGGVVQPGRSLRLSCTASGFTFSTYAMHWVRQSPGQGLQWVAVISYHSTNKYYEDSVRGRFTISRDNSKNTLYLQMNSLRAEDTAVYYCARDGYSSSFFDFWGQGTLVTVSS VL: DIQMTQSPSTLSASVGDRVAITCRASQSISRWLAWYQQQPGKAPKLLMSGASVLEDGVPSRFSGSGSGTEFTLTISSLQPDDFATYYCQHYNSYFVTFGQGTKVEIK', 8.12),
  ('AB-007068 (antibody, V domains shown) VH: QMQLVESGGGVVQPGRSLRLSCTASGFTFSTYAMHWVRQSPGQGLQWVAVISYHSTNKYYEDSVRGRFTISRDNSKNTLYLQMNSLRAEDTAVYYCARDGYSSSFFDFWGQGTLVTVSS VL: DIQMTQSPSTLSASVGDRVAITCRASQSISRWLAWYQQQPGKAPKLLMSLASVLESGVPSRFSGSGSGTEFTLTISSLQPDDFATYYCQHYNSYFVTFGQGTKVEIK', 6.95);

Would you mind telling me what pKd value was observed for AB-007066 (antibody, V domains shown) VH: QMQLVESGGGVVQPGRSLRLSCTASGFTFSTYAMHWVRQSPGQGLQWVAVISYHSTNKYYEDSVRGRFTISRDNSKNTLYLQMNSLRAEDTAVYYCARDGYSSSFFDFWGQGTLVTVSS VL: DIQMTQSPSTLSASVGDRVAITCRASQSISRWLAWYQQQPGKAPKLLMSQASVLESGVPSRFSGSGSGTEFTLTISSLQPDDFATYYCQHYNSYFVTFGQGTKVEIK ? 6.45
